Assay: Solubility of the drugs in aqueous media
Format: physicochemical
Conditions: phosphate buffered saline, aqueous buffer; PBS, pH 6.5; read-out: solubility in phosphate buffered saline at pH 6.5 (PBS)
observation-type: solubility

input: Record request: solubility value, item CCc1cc(Oc2cccc(N(Cc3cccc(OC(F)(F)C(F)F)c3)C[C@@H](O)C(F)(F)F)c2)ccc1Cl
output: < 0.1 µg/mL

---

Assay: Solubility of the drugs in aqueous media
Format: physicochemical
Conditions: water; read-out: solubility in water
observation-type: solubility

input: Quick one: solubility for CCOC(=O)N1c2ccc(C(F)(F)F)cc2[C@@H](N(Cc2cc(C(F)(F)F)cc(C(F)(F)F)c2)C(=O)OC)C[C@H]1CC [Drug 3, reference compound] ?
output: < 0.1 µg/mL

---

Experiment: Solubility of the drugs in aqueous media
Assay type: physicochemical
Conditions: model fasted duodenal (MFD) solution, fassgf or other biorelevant; MFD solution; read-out: solubility in model fasted duodenal (MFD) solution
observation-type: solubility

input: I am curious: what solubility value has been reported for CC[C@@H]1C[C@H](N(Cc2cc(C(F)(F)F)cc(C(F)(F)F)c2)C(C)=O)c2cc(C(F)(F)F)ccc2N1C(=O)OC(C)C ?
output: ~11 µg/mL

Value source: patent US8703204B2
